- System Tested: HLA-A*3301 (Homo sapiens, UniProt P04439, A270S/D185E/E176V/E277Q/E87N/F33T/G231S/H175R/I121M/I218V/I322F/K168Q/K210R/L300P/L318F/M331R/P217A/Q86R/Q94H/R138Q/T323A/T345S/T97I/V358M/Y195H)
- Assay Remarks: biochemical
- Format: binding
No end group written: not given here.
Assign IC50 to each entry below.
Give a bare numeral; the unit nM is implied.

## Input Request the reported IC50 associated with `KQRFHNIRGK`
## Output 35200

## Input Request the reported IC50 associated with `EQRLPLLPK`
## Output 987

## Input Request the reported IC50 associated with `NLVYGETLEK`
## Output 121

## Input Request the reported IC50 associated with `FVVYRDSIPK`
## Output 146

## Input Request the reported IC50 associated with `AFCWRPRRR`
## Output 75

## Input Request the reported IC50 associated with `KQLCDLLIK`
## Output 46400

## Input Request the reported IC50 associated with `RFYITTRYK`
## Output 98

## Input Request the reported IC50 associated with `VTIKIEGQLK`
## Output 58000
